# Test system: Mycobacterium tuberculosis
# experimentSummary: Antimycobacterial activity against Mycobacterium tuberculosis H37Rv after 10 days by micro broth dilution method
# Format: functional
# cond: 240 h
Rule: measured MIC below 6 µg/mL gets Yes; anything equal to or greater than 6 µg/mL gets No.

molecule | classLabel
COC(=O)[C@H](Cc1ccccc1)NC(=O)CNc1nc(NC(C)=O)nc2[nH]cnc12 | No
CC(C)[C@H](NC(=O)CNc1ncnc2[nH]cnc12)C(=O)O.O | No
COC(=O)[C@H](Cc1ccccc1)NC(=O)CNc1ncnc2[nH]cnc12 | Yes
COC(=O)[C@@H](NC(=O)CNc1ncnc2[nH]cnc12)C(C)C | No
NNC(=O)c1ccncc1 | Yes
CSCC[C@H](NC(=O)CNc1nc(N)nc2[nH]cnc12)C(=O)O.O | Yes
Nc1nc(NCC(=O)N[C@@H](CC(=O)O)C(=O)O)c2nc[nH]c2n1 | No
COC(=O)[C@H](C)NC(=O)CNc1nc(NC(C)=O)nc2[nH]cnc12.O | No
CC(C)[C@H](Nc1nc(N)nc2[nH]cnc12)C(=O)O | No
CC1COc2c(N3CCN(C)CC3)c(F)cc3c(=O)c(C(=O)O)cn1c23 (stereo not given) | Yes
